Biological target: T1, Anti-CD28 scFv (VH - linker 1 - VL) (biotinylated (site not stated))
T1 construct: Captured as biotinylated scFv on neutravidin plates in the panning ELISA
T1 sequence (scFv, as listed by the source): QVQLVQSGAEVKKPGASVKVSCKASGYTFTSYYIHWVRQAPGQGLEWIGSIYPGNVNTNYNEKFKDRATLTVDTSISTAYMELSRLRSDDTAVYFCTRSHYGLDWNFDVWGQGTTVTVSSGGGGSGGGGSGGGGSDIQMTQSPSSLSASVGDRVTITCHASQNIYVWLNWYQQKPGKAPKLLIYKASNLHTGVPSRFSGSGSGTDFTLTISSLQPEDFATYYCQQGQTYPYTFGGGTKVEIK
Assay: phage ELISA: biotinylated anti-CD28 scFv on neutravidin plate, clonal phage supernatant, anti-M13-HRP detection;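 note: competition format: before phage supernatant was added, wells were preincubated with soluble CD28 protein or with blocking buffer only, and phage were added without an intervening wash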
Rule: CD28 scFv signal of 2 or more gives 1.0; anything lower gives 0.0.

1. LYWCPRDMWAYCYS [Phage-414]	0.0
2. MDWCPMSMWAFCFD [Phage-405]	0.0
3. MSWCPWDMWNECFA [Phage-403]	0.0
4. MFWCPKDMWAECFA [Phage-408]	0.0
5. MDWCPRNMWNECFF [Phage-398]	1.0
6. MDWCPSDMWSNCFN [Phage-413]	0.0
7. MHWCPTYMWSECFA [Phage-400]	0.0
8. MDWCPKDMWAECFN [Phage-395]	1.0
